Origin of measurements: BindingDB's records for doi:10.1021/jm00123a006

tgt: 5-HT1A receptor (Bos taurus)
protocol: In vitro inhibition of [3H]5-HT (2 nM) binding to 5-hydroxytryptamine 1A receptor from bovine hippocampus
pIC50: −log10 of the molar value.
resultType: pIC50

• [N-]=[N+]=Nc1ccc(CCN2CCN(c3cccc(C(F)(F)F)c3)CC2)cc1I = 7.46
